- TARGET UNDER TEST: CYP2E1 (Homo sapiens)
- Sequence (P05181 whole entry): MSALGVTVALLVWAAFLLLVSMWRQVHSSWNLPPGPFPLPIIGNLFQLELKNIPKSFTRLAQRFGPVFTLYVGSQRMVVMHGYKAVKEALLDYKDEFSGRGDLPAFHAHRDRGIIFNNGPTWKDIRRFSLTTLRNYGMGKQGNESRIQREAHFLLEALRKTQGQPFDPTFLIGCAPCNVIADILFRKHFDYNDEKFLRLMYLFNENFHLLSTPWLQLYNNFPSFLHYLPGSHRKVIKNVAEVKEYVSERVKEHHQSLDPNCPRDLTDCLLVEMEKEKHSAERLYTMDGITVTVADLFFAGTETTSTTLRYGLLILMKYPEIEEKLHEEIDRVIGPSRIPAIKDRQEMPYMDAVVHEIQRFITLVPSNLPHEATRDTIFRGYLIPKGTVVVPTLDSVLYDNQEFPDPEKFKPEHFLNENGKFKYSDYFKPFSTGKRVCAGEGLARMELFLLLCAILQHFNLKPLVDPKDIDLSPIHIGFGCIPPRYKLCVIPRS
- METHOD NOTES: Human liver microsomal CYP2E1, chlorzoxazone 6-hydroxylation;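 also: chlorzoxazone added as substrate, 6-hydroxychlorzoxazone formation quantified by LC/MS/MS after 30 min at 37 °C with NADP+ regenerating system, compared against solvent control without test sample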
- CONDITIONS USED: human, human liver microsomes, pH 7.4, probe Chlorzoxazone
REPORTED ENDPOINT: inhibition at 30 min, […] (w/v) (%)
Value expressed in %; do not type the unit.

| COMPOUND | REPORTED ENDPOINT | UNITS OF MEASURE | NUMBER |
| --- | --- | --- | --- |
| CC1CCC(C(C)C)C(O)C1 (centres unmarked) | inhibition at 30 min, […] (w/v) | % | 10.5 |

Shift focus to the following entry.
What value of inhibition at 30 min, […] (w/v) has been reported for the following compound? `CC1=CC(=O)NS(=O)(=O)O1`
3.9
